PROTOCOL_SUMMARY: Evaluation of light sensitivity: acid generation ratio after ArF excimer lamp exposure (Rhodamine B base colour reagent)
Format: physicochemical
ASSAY_SETUP: 2.5 mM in acetonitrile with 2.5 mM Rhodamine B base; ArF excimer lamp 193 nm, 1.8 mW/cm^2, integrated amount of light 100 mJ/cm^2
Procedure: The photo-acid generators (A-1) to (A-10) of the present invention and the photo-acid generators (H-1) to (H-3) of comparative examples were each diluted with acetonitrile so that their molar concentrations would be 2.5 mM, and then Rhodamine B base (a color reagent for an acid, produced by Sigma-Aldrich) was added to the respective solutions so that the molar concentration would be 2.5 mM, yielding sample solutions. […]
MEASURED_PROPERTY: Acid generation ratio (%)

Here is how some compounds turned out for Acid generation ratio (%).
COMPOUND	Acid generation ratio (%)
Fc1cccc([S+](c2ccccc2)c2ccccc2)c1 [A-4]	A (55% or more)
Fc1cccc([S+](c2ccccc2)c2ccccc2)c1 [A-2]	A (55% or more)
FC(F)(F)c1cccc([S+](c2ccccc2)c2ccccc2)c1 [A-7]	A (55% or more)
Fc1cccc([S+](c2ccccc2)c2ccccc2)c1 [A-1]	A (55% or more)
FC(F)(F)c1cccc([S+](c2ccccc2)c2ccccc2)c1 [A-9]	A (55% or more)
O=S(=O)([O-])C(F)(F)F.c1ccc([S+](c2ccccc2)c2ccccc2)cc1 [H-1, reference compound]	A (55% or more)

query: Return Acid generation ratio (%) (reported value) for this compound: FC(F)(F)c1cccc([S+](c2ccccc2)c2ccccc2)c1 [A-6]
result: A (55% or more)

query: Return Acid generation ratio (%) (reported value) for this compound: Cc1ccc([S+](c2ccccc2)c2ccccc2)cc1.O=S(=O)([O-])C(F)(F)F [H-2, reference compound]
result: C (less than 55%)

query: Return Acid generation ratio (%) (reported value) for this compound: Fc1ccc([S+](c2ccccc2)c2ccccc2)cc1.O=S(=O)([O-])C(F)(F)F [H-3, reference compound]
result: C (less than 55%)

query: Return Acid generation ratio (%) (reported value) for this compound: FC(F)(F)c1cccc([S+](c2ccccc2)c2ccccc2)c1 [A-8]
result: A (55% or more)

query: Return Acid generation ratio (%) (reported value) for this compound: Fc1cccc([S+](c2ccccc2)c2ccccc2)c1 [A-3]
result: A (55% or more)
